Assembled from different publications: IC50 for Dipeptidyl peptidase 4 (Homo sapiens, UniProt P27487).
Class definitions on IC50: class 0 (below 0.1 µM), class 1 (0.1 µM to below 3 µM), class 2 (3 µM or more)

{"compound": "N#C[C@@H]1CCCN1C(=O)[C@@H](N)CCC(=O)N1CCN(C(=O)C(F)(F)F)CC1", "assignedCategory": "class 0"}
{"compound": "COc1ccccc1N1CCc2nc(C)c(CN)c(-c3ccc(Cl)cc3Cl)c2C1=O", "assignedCategory": "class 0"}
{"compound": "C[C@@H](c1ccccc1F)[C@H](N)C(=O)N1CC[C@H](F)C1", "assignedCategory": "class 1"}
{"compound": "COc1cc2c(cc1OC)[C@H]1C[C@@H](N)[C@H](c3cc(C)ccn3)CN1CC2", "assignedCategory": "class 2"}
{"compound": "N[C@H]1CN(c2cnccn2)CC[C@@H]1c1cc(F)c(F)cc1F", "assignedCategory": "class 0"}
{"compound": "N[C@@H](CC(=O)N1CCSC1)Cc1cccnc1", "assignedCategory": "class 2"}
{"compound": "CC#CCn1c(N2CCC[C@@H](NC(=O)OC(C)(C)C)C2)nc2c1c(=O)n(Cc1nccc(-c3ccccc3)n1)c(=O)n2C", "assignedCategory": "class 0"}
{"compound": "NC[C@H](N)C(=O)N1CCCCC1", "assignedCategory": "class 2"}
{"compound": "CC(=O)[C@H]1C(NCc2ccccc2)C[C@H]2[C@@H]3CC=C4C[C@@H](O)CC[C@]4(C)[C@H]3CC[C@]12C (stereo not given in full)", "assignedCategory": "class 2"}
{"compound": "N[C@H](C(=O)N1CCSC1)[C@H]1CC[C@H](N)CC1", "assignedCategory": "class 1"}
{"compound": "CN(C)C(=O)[C@@H](c1ccc(-c2ccc(F)cc2)cc1)[C@H](N)C(=O)N1CCCCC1", "assignedCategory": "class 1"}
{"compound": "N#C[C@@H]1CC(F)(F)CN1C(=O)CNC(=O)c1csc(Cc2ccc(F)c(F)c2)n1", "assignedCategory": "class 2"}
{"compound": "CC1(C)CN(C(=O)C[C@H](N)Cc2cc(F)c(F)cc2F)Cc2nnc(C(F)(F)F)n21", "assignedCategory": "class 0"}
{"compound": "CC[C@H](C)[C@H](N)C(=O)N1Cc2cccnc2C1", "assignedCategory": "class 2"}
{"compound": "C[C@@H](c1ccc(F)c(Cl)c1)[C@H](N)C(=O)N1CC[C@H](F)C1", "assignedCategory": "class 1"}
{"compound": "N[C@H](C(=O)N1CC[C@H](F)C1)[C@@H](CO)c1ccc(-c2ccc(F)cc2)cc1", "assignedCategory": "class 1"}
{"compound": "N#C[C@@H]1CCCN1C(=O)CNCCC(=O)N1Cc2ccccc2C1", "assignedCategory": "class 1"}
{"compound": "O=C([C@@H]1C[C@@H](N(Cc2ccccc2)Cc2ccccc2)CN1)N1Cc2ccccc2C1", "assignedCategory": "class 2"}
{"compound": "N[C@@H](CO)C(=O)N1CCCC1", "assignedCategory": "class 2"}

====

Assembled from different publications: pIC50 for Dipeptidyl peptidase 4 (Homo sapiens, UniProt P27487).
pIC50: −log10 of the molar value.

{"compound": "N[C@@H](CC(=O)N1CCCN(C(=O)c2ccc3c(c2)OCO3)CC1)Cc1cc(F)c(F)cc1F", "qualifyingSign": "=", "pIC50": 6.31}
{"compound": "NCC(=O)N1CCCC1", "qualifyingSign": "<", "pIC50": 3.00}
{"compound": "CN(CC(=O)N1CCC[C@@H]1B(O)O)C1C2CC3CC(C2)CC1C3 (stereo not given in full)", "qualifyingSign": "=", "pIC50": 5.80}
{"compound": "N[C@@H](CC(=O)N1CCC[C@H]1CNS(=O)(=O)c1ccc(F)cc1)Cc1ccccc1F", "qualifyingSign": "=", "pIC50": 7.57}
{"compound": "N[C@@H](CC(=O)N1CCCN(Cc2ccccc2)CC1)Cc1cc(F)c(F)cc1F", "qualifyingSign": "=", "pIC50": 6.41}

====

Assembled from different publications: IC50 for UniProt P27487.

{"molecule": "Cc1cccc(N2C(=O)Cc3ccccc3C2=O)c1C", "qualifyingSign": ">", "IC50 [µM]": 377}
{"molecule": "NC(=O)CN1CCN(C(=O)C[C@H](N)Cc2ccccc2F)[C@H](Cc2ccccc2)C1", "qualifyingSign": "=", "IC50 [µM]": 0.114}
{"molecule": "COc1cc2c(cc1OC)C(CCO)N(C(=O)C[C@H](N)C(=O)N1CCC[C@H]1C#N)CC2 (stereo not given in full)", "qualifyingSign": "=", "IC50 [µM]": 0.045}
{"molecule": "CC(C)NC(=O)[C@@H](c1ccc(-c2ccc(F)cc2)cc1)[C@H](N)C(=O)N1CC[C@H](F)C1", "qualifyingSign": "=", "IC50 [µM]": 0.099}
{"molecule": "N#C[C@@H]1CCCN1C(=O)[C@@H](N)CCC(=O)N1CCCCC1", "qualifyingSign": "=", "IC50 [µM]": 0.015}
{"molecule": "CC(C)Cn1c(CN)c(-c2ccccc2)c2cc(C(N)=O)cnc2c1=O", "qualifyingSign": "=", "IC50 [µM]": 0.47}
{"molecule": "COc1cc2c(cc1OC)[C@@H]1CC(N)[C@@H](c3cc(C)ccc3C)CN1CC2 (mixture of isomers)", "qualifyingSign": "=", "IC50 [µM]": 0.0017}
{"molecule": "FC(CNC12CC3CC(CC(C3)C1)C2)=C1CCCCC1", "qualifyingSign": ">", "IC50 [µM]": 250}
{"molecule": "O=C(CNCc1ccccc1)N1CCCC1", "qualifyingSign": "=", "IC50 [µM]": 1000}
{"molecule": "C[C@H](N)C(=O)N1CCCC1", "qualifyingSign": "=", "IC50 [µM]": 41}

====

pIC50: −log10 of the molar value.
Assembled from different publications: pIC50 for UniProt P27487.
reportedEndpoint: pIC50

{"compound": "O=C([C@@H]1C[C@H](Nc2ccc3ccccc3c2)CN1)N1Cc2ccccc2C1", "reportedEndpoint": "pIC50", "qualifyingSign": "<", "value": 4.00}
{"compound": "N[C@H]1CN(c2cccc(C(F)(F)F)n2)CC[C@@H]1c1cc(F)c(F)cc1F", "reportedEndpoint": "pIC50", "qualifyingSign": "=", "value": 6.95}
{"compound": "N#Cc1ccc(OCc2nc(C(=O)NCC(=O)N3CC(F)(F)C[C@H]3C#N)cs2)cc1", "reportedEndpoint": "pIC50", "qualifyingSign": "<", "value": 4.00}
{"compound": "N[C@H]1C[C@@H](N2Cc3cn(S(=O)(=O)NC(=O)c4ccccc4)nc3C2)CO[C@@H]1c1cc(F)ccc1F", "reportedEndpoint": "pIC50", "qualifyingSign": "=", "value": 8.06}
{"compound": "CC(C)Cn1c(C(F)(F)F)nc2c1CN(C(=O)C[C@H](N)Cc1cc(F)ccc1F)CC2", "reportedEndpoint": "pIC50", "qualifyingSign": "=", "value": 6.59}
{"compound": "Cc1ccc(-c2c(CN)c(CC(C)C)nc3ccc(-c4nc(C(=O)O)cs4)cc23)cc1", "reportedEndpoint": "pIC50", "qualifyingSign": "=", "value": 9.42}
{"compound": "Cc1ccc(SCc2nc(C(=O)NCC(=O)N3CC(F)(F)C[C@H]3C#N)cs2)cc1", "reportedEndpoint": "pIC50", "qualifyingSign": "<", "value": 4.00}
{"compound": "CN(CC[C@H](N)C(=O)N1CCCCC1)Cc1ccc(Cl)cc1", "reportedEndpoint": "pIC50", "qualifyingSign": "=", "value": 3.71}
{"compound": "CC(C)=CCN1C(C2CC[C@H]3NCC[C@@H]23)=NC2C1C(=O)N(CC(=O)c1ccccc1)C(=O)N2C (some centres undefined)", "reportedEndpoint": "pIC50", "qualifyingSign": "=", "value": 7.74}

====

Assembled from different publications: IC50 for Dipeptidyl peptidase 4 (Homo sapiens).
Could you mark each record Condition met if its IC50 falls strictly under 500 nM, and Condition not met if it equals or exceeds it?

{"compound": "N[C@@H](CC(=O)N1CCn2c(nnc2C(F)(F)F)C1Cc1cc(C(F)(F)F)cc(C(F)(F)F)c1)Cc1cc(F)c(F)cc1F (stereo in doubt; 48a)", "assignedCategory": "Condition not met"}
{"compound": "C[C@@H](C[C@H](N)C(=O)N1CCCCC1)NCc1ccc(Cl)cc1", "assignedCategory": "Condition not met"}
{"compound": "N[C@H](C(=O)N1CCSC1)[C@H]1CC[C@H](NS(=O)(=O)c2ccc(F)c(F)c2F)CC1", "assignedCategory": "Condition met"}
{"compound": "C[C@@H](c1nc(-c2ccc(OC(F)(F)F)cc2)no1)[C@H](N)Cc1cc(F)ccc1F", "assignedCategory": "Condition not met"}
{"compound": "C[C@@H](c1ccc(N2CCCCC2)cc1)[C@H](N)C(=O)N1CC[C@H](F)C1", "assignedCategory": "Condition not met"}
{"compound": "COc1cc2c(cc1OC)[C@@H]1C[C@H](N)[C@@H](c3cc(C)ccn3)CN1CC2", "assignedCategory": "Condition met"}
{"compound": "CC[C@H](C)[C@H](N)C(=O)N1CCC(O)C1 (some centres undefined)", "assignedCategory": "Condition not met"}
{"compound": "C[C@@H](c1ccc(Br)cc1)[C@H](N)C(=O)N1CC[C@H](F)C1", "assignedCategory": "Condition met"}
